Listed below: IC90 values for each entry.
Biological target: plasma kallikrein (Homo sapiens, UniProt P03952)
Construct: from tissue; host or cells: sodium citrate collected human plasma
Sequence (P03952 391-638 limits assumed): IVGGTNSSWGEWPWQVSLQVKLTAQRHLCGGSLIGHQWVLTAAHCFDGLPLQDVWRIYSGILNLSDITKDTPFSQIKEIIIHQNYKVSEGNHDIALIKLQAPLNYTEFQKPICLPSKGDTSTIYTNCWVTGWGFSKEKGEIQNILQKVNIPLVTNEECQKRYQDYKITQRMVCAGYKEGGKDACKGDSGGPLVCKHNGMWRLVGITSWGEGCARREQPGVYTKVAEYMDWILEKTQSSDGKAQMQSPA
Sequence (P03952 20-390 partner limits assumed): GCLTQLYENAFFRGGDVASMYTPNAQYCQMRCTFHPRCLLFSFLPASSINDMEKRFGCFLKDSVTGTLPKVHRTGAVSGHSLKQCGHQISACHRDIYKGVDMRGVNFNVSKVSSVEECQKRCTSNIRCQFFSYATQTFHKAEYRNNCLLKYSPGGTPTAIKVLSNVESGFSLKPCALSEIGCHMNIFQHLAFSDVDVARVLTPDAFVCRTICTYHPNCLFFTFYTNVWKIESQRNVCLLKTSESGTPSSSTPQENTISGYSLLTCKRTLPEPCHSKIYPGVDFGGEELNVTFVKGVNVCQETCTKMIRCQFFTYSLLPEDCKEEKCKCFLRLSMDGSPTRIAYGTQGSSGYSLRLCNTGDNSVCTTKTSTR
Assay: Neat human plasma assay (fluorogenic peptide), contact pathway-activated plasma
Assay type: biochemical
Settings: citrated human plasma, 10 nM human FXIIa activation, 100 μM PFR-AMC, room temperature; read-out: Human Plasma Assay: IC90

Recorded results for 3 molecules are shown here.
>>> print(df.to_string())
                                   molecule  assay_metric        value
0  Cc1ccnc([C@H]2C[C@@H]2C(=O)Nc2nncc(N[C@H](C)c3cc4cc(C5CC5)cc(N5CC(=O)N(C)C5=O)n4n3)n2)n1 (single isomer, unassigned)          IC90     < 0.5 µM
1  CN1C(=O)CN(c2cc(C3CC3)nn3cc(CNc4cc(NC(=O)[C@H]5C[C@@H]5c5cc(Cl)ccn5)ncn4)nc23)C1=O          IC90  0.5 to 5 µM
2  O=C(Nc1cc(NCc2cc3cc(C4CC4)cc(N4CCOC4=O)n3n2)ncn1)[C@H]1C[C@@H]1c1cc(Cl)ccn1 (racemic)          IC90   5 to 65 µM

Recall the recorded IC90 for Cc1ccnc([C@H]2C[C@@H]2C(=O)Nc2cc(N3C[C@@H](O)C[C@@H]3c3ccc(N4CC5CC5C4)nc3)ncn2)n1 (relative stereo) with plasma kallikrein (Homo sapiens, UniProt P03952) and state it.
0.5 to 5 µM

Request: CN1CCN(c2cc(C3CC3)cn3nc(CNc4ccnc(NC(=O)[C@H]5C[C@@H]5c5cccc(Cl)c5)c4)nc23)CC1
5 to 65 µM

Request: O=C(Nc1cc(NCc2cc3cc(C4CC4)cnc3s2)ccn1)[C@H]1C[C@@H]1c1cccc(Cl)c1
5 to 65 µM
